# EC50 per entry
target: CB2 receptor (Homo sapiens); construct: membranes; test: hCB2-mediated [35S]GTPγS binding; settings: agonist; read-out: in vitro CB2 receptor agonist potency EC50
Sequence (P34972 whole entry): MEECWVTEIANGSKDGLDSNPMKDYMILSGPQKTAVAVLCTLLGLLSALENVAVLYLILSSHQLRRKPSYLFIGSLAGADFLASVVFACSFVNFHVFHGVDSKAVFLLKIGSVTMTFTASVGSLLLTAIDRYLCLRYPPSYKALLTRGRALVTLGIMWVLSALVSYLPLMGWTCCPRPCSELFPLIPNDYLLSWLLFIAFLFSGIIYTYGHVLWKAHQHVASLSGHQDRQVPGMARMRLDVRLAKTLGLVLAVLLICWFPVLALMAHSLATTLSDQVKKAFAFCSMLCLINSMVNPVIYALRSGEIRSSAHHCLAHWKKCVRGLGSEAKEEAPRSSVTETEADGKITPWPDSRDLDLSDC
TEST READOUT: EC50 (µM)

- Cc1ccc(C(=O)N[C@H]2C(C)(C)[C@@H]3CC[C@@]2(C)C3)cc1S(=O)(=O)N1CCOCC1 [Compound 26]: 0.0078
- CC1(C)[C@@H]2CC[C@@](C)(C2)[C@@H]1NC(=O)c1ccc(Br)c(S(=O)(=O)N2CCCCC2)c1 [Compound 17]: 0.0182

###

molecular target: CB1 receptor (Homo sapiens)
Sequence (P21554 whole entry): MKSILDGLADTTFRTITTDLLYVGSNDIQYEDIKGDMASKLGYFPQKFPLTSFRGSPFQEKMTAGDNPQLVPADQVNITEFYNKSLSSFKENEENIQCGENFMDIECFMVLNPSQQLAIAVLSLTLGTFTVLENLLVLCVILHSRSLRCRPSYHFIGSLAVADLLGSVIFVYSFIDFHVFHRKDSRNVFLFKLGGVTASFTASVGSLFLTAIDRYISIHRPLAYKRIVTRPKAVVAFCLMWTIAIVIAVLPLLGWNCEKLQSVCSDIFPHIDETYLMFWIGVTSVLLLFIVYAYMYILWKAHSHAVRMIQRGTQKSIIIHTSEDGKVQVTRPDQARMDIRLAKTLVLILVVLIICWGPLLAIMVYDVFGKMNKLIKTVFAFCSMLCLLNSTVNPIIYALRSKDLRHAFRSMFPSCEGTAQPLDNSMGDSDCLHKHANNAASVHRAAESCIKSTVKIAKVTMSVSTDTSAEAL
pKi: −log10 of the molar value.
TEST READOUT: pKi

- CC1(C)[C@@H]2CC[C@@](C)(C2)[C@@H]1NC(=O)c1ccc(Br)c(S(=O)(=O)N2CCCCC2)c1 [Compound 17]: 7.03
- Cc1ccc(C(=O)N[C@H]2C(C)(C)[C@@H]3CC[C@@]2(C)C3)cc1S(=O)(=O)N1CCOCC1 [Compound 26]: 6.92
